result-type: melting point

Example results:
• CC(=O)N(OC(=O)NC(C)(C)C)C(=O)NC(C)(C)C = 111 to 113 °C
• COC(=O)c1ccc(N2CCNCC2)cc1 = 95 to 97 °C
• ClC(=NNc1ccc(Cl)cc1)c1ccccc1 = 107 to 108 °C

Quick one: melting point of N[C@@H](CC(=O)N1CCn2c(nnc2C(F)(F)F)C1)Cc1cc(F)c(F)cc1F ?
118 °C

Which melting point is reported for this compound? CCOC(=O)COc1cc(-c2ccccc2)nc2ccccc12
96 °C

Sample CCC(CC)n1nc(C)c2c(NN3CCc4cc(Br)cc(Br)c43)nc(C)nc21 — what was its melting point?
190 to 191 °C

Using the record for COc1cc(C(=O)CCC(=O)c2cc(OC)c(OC)c(OC)c2)cc(I)c1OCc1ccccc1 , report its melting point.
134 to 135 °C

Which melting point value belongs to CN(C)Cc1nnc2n1-c1ccc(Cl)cc1C(c1ccc(Cl)cc1)=[N+]([O-])C2 ?
260 °C

Suppose we examine the compound CN1CCN(C2CC3C4CCC5CC6OC6CC5(C)C4CCC3(C)C2=O)CC1 (configuration not stated) ; what melting point value has been reported?
132 to 134 °C

melting point for O=Ic1ccc(Cl)cc1[N+](=O)[O-] ?
118 °C

Form field: reported melting point of CC1(C)CCCc2cc(CC#Cc3ccc(C(=O)O)c(O)c3)ccc21
152 to 153 °C

Consider the compound shown here: COc1ccc(CCN2CCc3cc(OC[C@H]4CO[C@](Cn5ccnc5)(c5ccc(Cl)cc5Cl)O4)ccc3C2)cc1 (racemic) What is its recorded melting point?
121 to 122 °C
